assay: gradient 5% acetonitrile 3 min, to 50% in 2 min, to 85% in 15 min, held 3 min, 100 µL/min; conditions: column: Zorbax Extend-C18 2.1 x 50 mm; eluents: water / acetonitrile, 0.1% formic acid
Readout Kind: RP-LC retention time (s)

Below are worked cases with known answers.
Molecule	Number
COc1ccc(OC)c(NC(=O)N2CCC3(CC2)N=C(c2ccc(C)c(C)c2)C(=O)N3)c1	896
COc1ccc(NC(=O)c2cn3c(n2)CCCC3)cc1OC	570
O=C(CCCCCCNC(=O)c1cnc(N(c2ccccc2)c2ccccc2)nc1)NO	771
Cc1sc(C)c(S(=O)(=O)N2CCc3ccccc3C2)c1-c1cc(C(F)(F)F)on1	1280
CCn1cc(C(=O)NCC2CC2)c(S(=O)(=O)N2CCSCC2)n1	817
CCCNC(=O)CCc1nc2ccccc2n(CC(=O)Nc2c(C)cccc2CC)c1=O	810
Cc1cc(C)c(C#N)c(SCC(=O)N2CCOCC2)n1	721
CCc1noc(-c2ccnc(-n3ncc(C(=O)N4CCSCC4)c3C)c2)n1	904
Cc1oc(-c2[nH]ncc2C(=O)N(C)C)cc1S(=O)(=O)N1CCC(C)CC1	710
O=C(Nc1ccc(Br)cc1F)N1CCC(n2cnc3cccnc32)CC1	690

I: COc1cc(OC)cc(C(=O)N2CCC3(CC2)NC(=O)c2cc(Cl)ccc2N3C)c1
II: O=C(c1ccc2c(c1)OCO2)N1CCC(Nc2ncnc3c2CCC3)C1 (stereo not given)
input: Between I and II , which one has the lower reported RP-LC retention time value? Give the label of your selection.
output: II
(II: 564 s, I: 826 s)

P: Cc1cc(C)n(-c2cc(NC(C)C)ncn2)n1
Q: CC(C)c1ccc(S(=O)(=O)N2CC(=O)N(C3CCCC3)C3(CCCCC3)C2)cc1
input: Larger number for RP-LC retention time: P , or Q ? Selection: enter the item's label.
output: Q
(Q: 1330 s, P: 756 s)

P: Cc1ccc(S(=O)(=O)NC2CCS(=O)(=O)C2)cc1[N+](=O)[O-] (stereo not given)
Q: CC(=O)c1cccc(NC(=O)Cn2c(-c3ccc(Cl)cc3)nc(C)cc2=O)c1
input: Choose between P and Q : whose measured RP-LC retention time value is numerically larger? Reply briefly: the label of your chosen item.
output: Q

// provenance: the METLIN SMRT retention time set (Domingo-Almenara et al. 2019)
